For each of the compounds below, state its Ratio IC50 cell/enzyme.
- System: U937 cells (monocytic cell line)
- protocol.text: Cell proliferation inhibition assay (WST-1), U937
- Assay type: cell-based
- applied.conditions: U937 cell proliferation IC50 / DHFR enzyme IC50
# respond with the number and nothing more

## Input Look up Ratio IC50 cell/enzyme: COc1cc(NCc2cnc3nc(N)nc(N)c3c2C)cc(OC)c1OC [Compound 2 G = N, reference compound]
## Output 220

## Input Look up Ratio IC50 cell/enzyme: Cc1c(CNc2ccc(OCC[C@H](NC3CCCCC3)C(=O)OC3CCCC3)cc2)cnc2nc(N)nc(N)c12 [Compound 4]
## Output 0.3

## Input Look up Ratio IC50 cell/enzyme: Cc1c(CNc2ccc(C(=O)N[C@@H](CC(C)C)C(=O)OC3CCCC3)cc2)cnc2nc(N)nc(N)c12 [Compound 6]
## Output 0.013

## Input Look up Ratio IC50 cell/enzyme: Cc1c(CNc2ccc(CN[C@@H](CC(C)C)C(=O)OC3CCCC3)cc2)cnc2nc(N)nc(N)c12 [Compound 5]
## Output 0.8

## Input Look up Ratio IC50 cell/enzyme: Cc1c(CNc2ccc(OCC[C@H](N)C(=O)OC3CCCC3)cc2)cnc2nc(N)nc(N)c12 [Compound 3]
## Output 1.9
